Property: pest or weed control at 250 g/ha; scope: individual compounds
test system: Lolium perenne (LOLPE); test: Glasshouse assay for herbicidal activity (pre- and post-emergence), percentage phytotoxicity; format: in vivo; details: Lolium perenne, post-emergence, 360 h, POST-emergence, rate 250 g/ha, visual score 15 DAA (100%=total damage, 0%=no damage); read-out: Post-emergence herbicidal activity (percentage phytotoxicity) LOLPE POST
Express your answer as a number followed by its unit.

[
  {
    "Compound": "Cc1cc(-c2ncc(F)cc2F)cc(C)c1C1C(=O)CC(CC(=O)NCc2ccccc2)C1=O (stereo not shown)",
    "Assay endpoint": "pest or weed control at 250 g/ha",
    "Readout value": "100%"
  },
  {
    "Compound": "C/C=C/c1cc(C)c(C2C(=O)CC(CC(=O)N(C)CC)C2=O)c(C)c1 (stereo not shown)",
    "Assay endpoint": "pest or weed control at 250 g/ha",
    "Readout value": "100%"
  },
  {
    "Compound": "Cc1cc(-c2ncc(F)cn2)cc(C)c1C1C(=O)CC(CC(=O)NCc2ccccc2)C1=O (stereo not shown)",
    "Assay endpoint": "pest or weed control at 250 g/ha",
    "Readout value": "100%"
  },
  {
    "Compound": "C/C=C/c1cc(C)c(C2C(=O)CC(CC(=O)NCc3ccc(OC)cc3)C2=O)c(CC)c1 (stereo not shown)",
    "Assay endpoint": "pest or weed control at 250 g/ha",
    "Readout value": "90%"
  },
  {
    "Compound": "Cc1cc(-n2cc(Cl)cn2)cc(C)c1C1C(=O)CC(CC(=O)NCC2CC2)C1=O (stereo not shown)",
    "Assay endpoint": "pest or weed control at 250 g/ha",
    "Readout value": "90%"
  }
]

In: Which pest or weed control at 250 g/ha value is on record for CCc1cc(OCC(F)(F)F)cc(C)c1C1C(=O)CC(CC(=O)NCc2ccc(C#N)cc2)C1=O (stereo not shown) ?
Out: 90%

In: Param item = C#CCNC(=O)CC1CC(=O)C(c2c(C)cc(-c3ncc(F)cn3)cc2C)C1=O (stereo not shown) ; retrieve measured pest or weed control at 250 g/ha.
Out: 90%

In: # pest or weed control at 250 g/ha lookup, item C=C(C)CNC(=O)CC1CC(=O)C(c2c(C)cc(-n3cc(Cl)cn3)cc2C)C1=O (stereo not shown)
Out: 70%

In: Reported pest or weed control at 250 g/ha for CCc1cc(C)cc(C)c1C1C(=O)CC(CC(=O)NCc2cccc(F)c2)C1=O (stereo not shown) : what is it?
Out: 100%

In: Requested field: pest or weed control at 250 g/ha. Item: CCc1cc(OCC(F)(F)F)cc(C)c1C1C(=O)CC(CC(=O)NCc2ccc(OC)cc2)C1=O (stereo not shown)
Out: 100%

In: What value of measured pest or weed control at 250 g/ha is listed for CCc1cc(-n2cc(Cl)cn2)cc(C)c1C1C(=O)CC(CC(=O)N(C)C(C)(C)C)C1=O (stereo not shown) ?
Out: 100%

In: Data request, read-out pest or weed control at 250 g/ha, for C=CCNC(=O)CC1CC(=O)C(c2c(C)cc(-n3cc(Cl)cn3)cc2C)C1=O (stereo not shown)
Out: 90%

In: Quick one: pest or weed control at 250 g/ha of Cc1cc(-c2ncc(F)cn2)cc(C)c1C1C(=O)CC(CC(=O)N(C)Cc2cccc(F)c2)C1=O (stereo not shown) ?
Out: 100%

In: Given the entry Cc1cc(OCC(F)(F)F)cc(C)c1C1C(=O)CC(CC(=O)NCc2cccc(F)c2)C1=O (stereo not shown) , report its measured pest or weed control at 250 g/ha.
Out: 90%

In: Param item = CCc1cc(C)cc(C)c1C1C(=O)CC(CC(=O)N2CCOCC2)C1=O (stereo not shown) ; retrieve measured pest or weed control at 250 g/ha.
Out: 100%

In: Data request, read-out pest or weed control at 250 g/ha, for C/C=C/c1cc(C)c(C2C(=O)CC(CC(=O)N(C)CC)C2=O)c(CC)c1 (stereo not shown)
Out: 100%

* * *

tested on: Lolium perenne (LOLPE); assay: Glasshouse assay for herbicidal activity (pre- and post-emergence), percentage phytotoxicity; assay type: in vivo; details: Lolium perenne, pre-emergence, 480 h, pre-emergence, 250 g/ha, 20 DAA, visual score (100%=total damage; 0%=no damage); read-out: LOLPE PRE herbicidal activity (percentage phytotoxicity)
Assay endpoint: pest or weed control at 250 g/ha (%)
Number only, in %; omit the unit.

Some solved cases for reference:
[
  {
    "Molecule": "CCCN(CC)C(=O)CC1CC(=O)C(c2c(C)cc(C)cc2C)C1=O (centres unmarked) [Compound A171]",
    "Units symbol": "%",
    "pest or weed control at 250 g/ha": 70
  },
  {
    "Molecule": "CCSC(=O)OC1=C(c2c(C)cc(-c3ncc(Cl)cn3)cc2C)C(=O)C(CC(=O)NC(C)(C)C)C1 (centres unmarked) [Compound P5]",
    "Units symbol": "%",
    "pest or weed control at 250 g/ha": 100
  },
  {
    "Molecule": "Cc1cc(C)c(C2C(=O)CC(CC(=O)N3CCC(C)CC3)C2=O)c(C)c1 (centres unmarked) [Compound A172]",
    "Units symbol": "%",
    "pest or weed control at 250 g/ha": 90
  },
  {
    "Molecule": "Cc1cc(C)c(C2C(=O)CC(CC(=O)NC3COC3)C2=O)c(C)c1 (centres unmarked) [Compound A182]",
    "Units symbol": "%",
    "pest or weed control at 250 g/ha": 70
  },
  {
    "Molecule": "CCOC(=O)OC1=C(c2c(C)cc(-c3ncc(Cl)cn3)cc2C)C(=O)C(CC(=O)NC(C)(C)C)C1 (centres unmarked) [Compound P4]",
    "Units symbol": "%",
    "pest or weed control at 250 g/ha": 100
  }
]

In: I would be grateful if you could share the reported pest or weed control at 250 g/ha for COCCCNC(=O)CC1CC(=O)C(c2c(C)cc(C)cc2C)C1=O (centres unmarked) [Compound A176] .
Out: 100

In: If you can, please state the reported pest or weed control at 250 g/ha value of Cc1cc(-c2ncc(Cl)cn2)cc(C)c1C1=C(OC(=O)c2ccc(F)cc2)CC(CC(=O)NC(C)(C)C)C1=O (centres unmarked) [Compound P2] .
Out: 100

In: Using the record for CCCCCNC(=O)CC1CC(=O)C(c2c(C)cc(C)cc2C)C1=O (centres unmarked) [Compound A177] , report its pest or weed control at 250 g/ha.
Out: 100

* * *

The following molecules are listed with their measured pest or weed control at 250 g/ha values.
tested on: Alopecurus myosuroides (ALOMY); experiment: Glasshouse assay for herbicidal activity (pre- and post-emergence), percentage phytotoxicity; format: in vivo; details: Alopecurus myosuroides, pre-emergence, 480 h, Rate 250 g/ha; pre-emergence; assessed visually 20 DAA; 100%=total damage, 0%=no damage; read-out: Pre-emergence herbicidal activity (percentage phytotoxicity) ALOMY PRE
A number alone suffices; assume %.

[
  {
    "Molecule": "Cc1cc(C)c(C2C(=O)CC(CC(=O)N3CCOCC3)C2=O)c(C)c1 (centres unmarked) [Compound A24]",
    "Readout value": 80
  },
  {
    "Molecule": "Cc1cc(-c2cnc(Cl)cn2)cc(C)c1C1C(=O)CC(CC(=O)NCc2cccs2)C1=O (centres unmarked) [Compound A148]",
    "Readout value": 70
  },
  {
    "Molecule": "CCCCNC(=O)CC1CC(=O)C(c2c(C)cc(-c3ncc(Cl)cc3F)cc2C)C1=O (centres unmarked) [Compound A44]",
    "Readout value": 100
  }
]

In: Give the measured pest or weed control at 250 g/ha of Cc1cc(-c2ncc(Cl)cc2F)cc(C)c1C1C(=O)CC(CC(=O)NCc2ccccc2F)C1=O (centres unmarked) [Compound A118] .
Out: 80

In: Consider the molecule shown here: Cc1cc(-c2ccc(Cl)cc2)cc(C)c1C1C(=O)CC(CC(=O)NC(C)C)C1=O (centres unmarked) [Compound A35] What is its recorded pest or weed control at 250 g/ha?
Out: 90

In: Given the molecule Cc1cc(-c2cncnc2)cc(C)c1C1C(=O)CC(CC(=O)NCc2ncccc2Cl)C1=O (centres unmarked) [Compound A143] , what is its reported pest or weed control at 250 g/ha?
Out: 0

In: Dear colleague, I am looking for the recorded pest or weed control at 250 g/ha of the following molecule: Cc1cc(-c2ncc(Cl)cn2)cc(C)c1C1C(=O)CC(CC(=O)NC(C)(C)C)C1=O (centres unmarked) [Compound A40]
Out: 100

In: Quick one: pest or weed control at 250 g/ha for Cc1cc(-c2ncc(Cl)cc2F)cc(C)c1C1C(=O)CC(CC(=O)NCc2ccsc2)C1=O (centres unmarked) [Compound A130] ?
Out: 70
